Biological target: T1, Mature Activin A (human, UniProt P08476 311-426)
T1 construct: also called active Activin A; INHBA mature
T1 sequence: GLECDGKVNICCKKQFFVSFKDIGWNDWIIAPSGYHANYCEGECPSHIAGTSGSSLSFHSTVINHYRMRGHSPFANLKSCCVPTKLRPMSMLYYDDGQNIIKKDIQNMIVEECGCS
Assay: ELISA, coated antigen, OD450
observation_type: fold-change of OD 450 over negative control (BSA)

Answered cases to consult:
binder	value_observed
AB350 (antibody, IgG1, V domains shown) VH: QVQLQESGPGLVKPSQTLSLTCTVSGVSLSDARMGVNWIRQPPGKGLEWIGYVSTTGTTDYNPSLKSRVTMSVDTSKNQFSLKVNSVTAADTAVYYCARAGYPDVWGKGTLVTVSS VL: EIVMTQSPATLSLSPGERATLSCRASESVRSNLAWYQQKPGQAPRLLIYGASNRASGIPARFSGSGSGTDFTLTISSLEPEDFAVYYCQQYHTWPPWAFGGGTKVEIK	10.6 fold
AB346 (antibody, IgG1, V domains shown) VH: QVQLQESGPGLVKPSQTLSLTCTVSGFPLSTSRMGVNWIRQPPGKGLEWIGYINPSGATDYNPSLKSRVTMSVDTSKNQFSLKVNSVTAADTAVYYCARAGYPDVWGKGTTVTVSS VL: EIVMTQSPATLSLSPGERATLSCRASRSVSSDLAWYQQKPGQAPRLLIYDVSTRATGIPARFSGSGSGTDFTLTISSLEPEDFAVYYCQQYGSSLPPTFGGGTKVEIK	14 fold
AB347 (antibody, IgG1, V domains shown) VH: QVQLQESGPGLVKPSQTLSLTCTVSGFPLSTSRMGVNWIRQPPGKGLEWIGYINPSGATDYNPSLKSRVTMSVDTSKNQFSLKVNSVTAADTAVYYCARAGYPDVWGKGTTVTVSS VL: EIVMTQSPATLSLSPGERATLSCRASQNIGHSLAWYQQKPGQAPRLLIYGASIRAPGIPARFSGSGSGTDFTLTISSLEPEDFAVYYCQQYITWPSTFGGGTKVEIK	10.2 fold
AB338 (antibody, IgG1, V domains shown) VH: EVQLVESGGGLVQPGGSLRLSCAASGFTASRNYMSWVRQAPGKGLELVASISGSGDYTYYPDSVKGRFTISRDNAKNSLYLQMNSLRAEDTAVYYCARSPRGPRLLGYYYGMDVWGQGTTVTVSS VL: DIVMTQSPLSLPVTPGEPASISCRSSQSLLHSNEKNYLHWYLQKPGQSPQLLIYDASKRASGVPDRFSGSGSGTDFTLKISRVEAEDVGVYYCVQDLHTPFTFGGGTKVEIK	1.94 fold

Now for another entry.
Input: Consider the binder shown here: AB426 (antibody, IgG1, V domains shown) VH: EVQLVESGGGLVQPGGSLRLSCAASGFTFSDHHMSWVRQAPGKGLELVASISPSGDFTYYPDSVKGRFTISRDNAKNSLYLQMNSLRAEDTAVYYCARDVSPVYYWGQGALVTVSS VL: DIVMTQSPLSLPVTPGEPASISCRSSQSLLHWYLQKPGQSPQLLIYMGSQRAAGVPDRFSGSGSGTDFTLKISRVEAEDVGVYYCQSGVTFGGGTKVEIK What is its recorded fold-change of OD 450 over negative control (BSA)?
Output: 4.66 fold
